# key: entry, value: melting point
Output spec: scalar in °C, unitless text.

Reported melting point, compound Cn1nc(Br)c([N+](=O)[O-])c1NCc1ccccc1 : ____
133

Repeat for the following compound: Cc1[nH]c(C=NNC(=O)c2ccc(O)cc2)c(C)c1Br
235

Repeat for the following compound: Nc1cccc2c1C1CCCCN1C2=O (stereo unspecified)
183

---

# key: entry, value: melting point

Reported melting point, compound CN(C)c1ccc2c(c1)Sc1cc(OC(=O)c3ccccc3)ccc1N2C(=O)c1ccccc1 : ____
194 to 200 °C

Repeat for the following compound: COC(=O)c1c(S(=O)(=O)NC(=O)Nc2nc(C)nc(OC)n2)c(C)nn1C
195 to 198 °C

Repeat for the following compound: COc1cc(OC)nc(Cc2ccccc2N)n1
82 to 84 °C

More entries:
Reported melting point, compound CC(=NNC(=S)N1CCCCCC1)c1ccc2ccccc2n1 : ____
129 to 131 °C

Repeat for the following compound: Cc1nc2c(Cl)cc3nc(O)c(O)nc3c2nc1C
> 300 °C

Repeat for the following compound: CC(C)(C)c1ccccc1N1CCN(C(=O)c2ncoc2CCC(=O)O)CC1
180 to 181 °C

Repeat for the following compound: CCCOc1cccc2c1C(N)=NS(=O)(=O)N2
229 to 230 °C

From: a melting point compilation (Tetko et al.; mined from patent text by program, amines drawn as free bases though some values may be those of a salt)
